Experiment: Terminal half life in cancer affected human
Format: ADME, organism-based
Settings: in vivo, read-out: beta t1/2 (converted)
quantityMeasured: half-life (h)
Give the value, in units of h, as a plain number.

query: Name the recorded half-life for COc1cc2ncnc(Nc3ccc(F)c(Cl)c3)c2cc1OCCCN1CCOCC1 .
result: 37

---

Documented Vd across a set of compounds
Assay: Volume of distribution in Wistar rat at 2 mg/kg, iv and 5 mg/kg, po
Assay type: ADME, organism-based
Conditions: in vivo, read-out: Vdss
Give the value, in units of L/kg, as a plain number.

The examples below pair each entry with its known result.
- compoundString: "COc1cc2ncnc(Nc3cccc(Cl)c3F)c2cc1OC1CCN(CC(N)=O)CC1"
  reported: 2.7
- compoundString: "COCCN1CCC(Oc2cc3c(Nc4cccc(Cl)c4F)ncnc3cc2OC)CC1"
  reported: 1.3
- compoundString: "COc1cc2ncnc(Nc3cccc(Cl)c3F)c2cc1OC1CCN(C)CC1"
  reported: 20.8

Kindly review the next compound as well.
query: Name the recorded Vd for COc1cc2ncnc(Nc3cccc(Cl)c3F)c2cc1OC1CCN(S(C)(=O)=O)CC1 .
result: 1.5
